molecular target: T1, Homo sapiens Beta-Nerve Growth Factor (beta-NGF) (Homo sapiens, UniProt P01138 122-241); assay: Antigen binding ELISA: biotinylated NGF on neutravidin plates, anti-human Fc-HRP, OD 450 nm
T1 construct: Biotinylated and held on neutravidin plates in the ELISA; also called huNGF; B-NGF
T1 sequence (P01138 122-241): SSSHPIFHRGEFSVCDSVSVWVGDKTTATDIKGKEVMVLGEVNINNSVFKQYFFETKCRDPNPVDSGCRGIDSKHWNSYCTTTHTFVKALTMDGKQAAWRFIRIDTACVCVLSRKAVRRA
Measured pEC50 of individual entries
In plain terms, pEC50 is the concentration in mol/L turned into minus its base-10 logarithm.

binder | pEC50
Antibody Ab2 (antibody, human IgG1, kappa, N297A, V domains shown) VH: EVQLVESGGGLVQPGGSLRLSCAASGFTVSSYAMSWVRQAPGKGLEWVGVITSIGSTVYASSAKGRFTISRDNSKNTLYLQMNSLRAEDTAVYYCARGYDDYDEMTYFNIWGQGTLVTVSS VL: DIQMTQSPSTLSASVGDRVTITCQASQNIYSNLAWYQQKPGKAPKLLIYGASNLDAGVPSRFSGSGSGTEYTLTISSLQPDDFATYYCQSAFDSDSTENTFGGGTKVEIKR | 9.16
Antibody Ab4 (antibody, human IgG1, kappa, N297A, V domains shown) VH: EVQLVESGGGLVQPGGSLRLSCAASGFTVSSYVMIWVRQAPGKGLEYIGITWSAGTYYASSAKGRFTISRDNSKNTLYLQMNSLRAEDTAVYYCAGGGGSIYDIWGQGTLVTVSS VL: DIQMTQSPSTLSASVGDRVTITCQSSQSVYKNNYLSWYQQKPGKAPKLLIYDASNLPSGVPSRFSGSGSGTEFTLTISSLQPDDFATYYCLGDYDDDADNAFGGGTKVEIKR | 9.27
Antibody Ab3 (antibody, human IgG1, kappa, N297A, V domains shown) VH: QSVEESGGRLVTPGTPLTLTCTVSGFSLSSYVMIWVRQAPGKGLEYIGITWSAGTYYASWAKGRFTISKTSSTTVDLKITSPTTEDTATYFCAGGGGSIYDIWGPGTLVTVSS VL: AVLTQTPSPVSAAMGDTVTIKCQSSQSVYKNNYLSWYQQKPGQPPRLLIYDASNLPSGVPSRFSGSGSGTQFTLTISGVQCDDAATYYCLGDYDDDADNAFGGGTEVVVKR | 9.59
Antibody Ab1 (antibody, human IgG1, kappa, N297A, V domains shown) VH: QSLEESGGRLVTPGTPLTLTCTVSGFSLSSYAMSWVRQAPGKGLEWIGVITSIGSTVYASWAKGRFTISKTSTTVDLKITSPTTEDTATYFCARGYDDYDEMTYFNIWGQGTLVTVSS VL: ALVMTQTPSSVSAAVGGTVTINCQASQNIYSNLAWYQQRPGQRPKLLIYGASNLDAGVPSRFRGSGSGTEYTLTISDLECDDVGTYYCQSAFDSDSTENTFGGGTEVVVKR | 9.24

With those in mind, consider the next binder.
Fill in: pEC50 of Antibody Ab5 (antibody, human IgG1, kappa, N297A, V domains shown) VH: QSVEESGGRLVTPGTPLTLTCTVSGFSLSNYAVGWVRQAPGKGLEWIGIIGRNGNTWYASWARGRFTISKTSTTVDLKITSPTSEDTATYFCARGYGRSVAYYVFNIWGPGTLVTVSS VL: AYDMTQTPASVEVAVGGTVTIKCQASQSIYSNLAWYQQRPGQPPKLLIYDASTLESGVPSRFKGSGSGTEYTLTISGVECADAASYYCQQGFTVSDIDNAFGGGTEVVVKR is ___
9.60

Cited source: patent US20170051048A1
